# Target Desc: HDM2 (Homo sapiens)
# Construct: Thioredoxin (N); made in house; host or cells: E. coli strain BL21(DE3)Rosetta
# Sequence (Q00987 17-125): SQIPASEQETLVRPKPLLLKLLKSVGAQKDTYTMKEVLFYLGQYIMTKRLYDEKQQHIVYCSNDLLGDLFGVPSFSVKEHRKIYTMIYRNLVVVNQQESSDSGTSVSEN
# Assay Explanation: HDM2 FRET assay (inhibition of binding of FITC labeled p53-pocket peptide to HDM2)
# Details: 0.5 nM HDM2 (residues 17 to 125), 3nM peptide, two hour incubation at room temperature; read-out: FRET IC50
Listed here are molecules together with their documented IC50.
Result Type: IC50 (nM)

Given Smiles	Result Type	Numeric Value
C[C@@H]1COC[C@H](C)N1c1nc2nc(-c3noc(=O)[nH]3)nc(-c3cccc(Cl)c3)c2n1C[C@H]1CC[C@H](C)CC1	IC50	6.36
CC(C)c1ccnc(-c2nc3nc(-c4noc(=O)[nH]4)nc(N[C@H](C)C4CCC4)c3n2C[C@H]2CC[C@H](C)CC2)c1F	IC50	5.13
COC[C@@H]1COCCN1c1nc2nc(-c3noc(=O)[nH]3)nc(-c3cccc(Cl)c3)c2n1C[C@H]1CC[C@H](C)CC1	IC50	19
Cc1cccc(-c2nc3nc(-c4nc[nH]n4)nc(N[C@H](C)C4CC4)c3n2Cc2ccc(C(F)(F)F)cc2)c1	IC50	314
C[C@H]1CC[C@H](Cn2c(N3CCOC[C@H]3c3ccccc3)nc3nc(-c4noc(=O)[nH]4)nc(-c4ccnc(Cl)c4)c32)CC1	IC50	1.14
C[C@H]1CC[C@H](Cn2c(N3CCC[C@H]3CF)nc3nc(-c4n[nH]c(=O)o4)nc(-c4cncc(Cl)c4)c32)CC1	IC50	3.91
C[C@@H](Nc1nc(NCC(=O)O)nc2nc(N3CCOC[C@H]3c3ccccc3)n(C[C@H]3CC[C@H](C)CC3)c12)C1CCC1	IC50	146
C[C@H]1CC[C@H](Cn2c(N3CCOC[C@H]3C(N)=O)nc3nc(-c4noc(=O)[nH]4)nc(-c4cccc(Cl)c4)c32)CC1	IC50	105
C[C@H]1CC[C@H](Cn2c(N3CCOC[C@H]3c3ccccc3)nc3nc(C(=O)O)nc(-c4cccc(Cl)c4)c32)CC1	IC50	0.68
C[C@@H](Nc1nc(N2CCC[C@@H]2C(=O)O)nc2nc(N3CCOC[C@H]3c3ccccc3)n(C[C@H]3CC[C@H](C)CC3)c12)C1CCC1	IC50	96.1
C[C@H]1CC[C@H](Cn2c(N3CCOCC3)nc3nc(-c4n[nH]c(=O)o4)nc(-c4cccc(Cl)c4)c32)CC1	IC50	163
